For each entry below, report its pest or weed control at 70 g/ha value.
Test system: Key Grass and Sedge Weeds as well as Grass Crops
Assay: Post-Emergent Test II (Table 6)
Assay type: in vivo
Settings: post-emergence, 336 h, SORVU: grain sorghum (Sorghum vulgare), 70 g ai/ha, 14 days after application, read-out: Visual Growth Reduction (%) 14 Days After Application SORVU

Incoming: Returns the measured pest or weed control at 70 g/ha for the input molecule. Input: `COC(=O)c1nc(-c2ccc(F)c(F)c2C)cc(N)c1Cl`
Outgoing: 0 to 29%

Incoming: Returns the measured pest or weed control at 70 g/ha for the input molecule. Input: `COC(=O)c1nc(-c2ccc(Cl)c(F)c2C(F)F)cc(N)c1Cl`
Outgoing: 0 to 29%

Incoming: Returns the measured pest or weed control at 70 g/ha for the input molecule. Input: `COC(=O)c1nc(-c2ccc(C(F)(F)F)nc2)c(F)c(N)c1Cl`
Outgoing: 75 to 84%

Incoming: Returns the measured pest or weed control at 70 g/ha for the input molecule. Input: `COC(=O)c1nc(-c2ccc(Cl)nc2F)c(F)c(N)c1Cl`
Outgoing: 30 to 44%

Incoming: Returns the measured pest or weed control at 70 g/ha for the input molecule. Input: `COC(=O)c1nc(-c2ccc(Cl)c(Cl)c2C)cc(N)c1Cl`
Outgoing: 0 to 29%

Incoming: Returns the measured pest or weed control at 70 g/ha for the input molecule. Input: `Cc1c(-c2nc(C(=O)O)c(Cl)c(N)c2F)ccc(C(F)(F)F)c1F`
Outgoing: 0 to 29%

Incoming: Returns the measured pest or weed control at 70 g/ha for the input molecule. Input: `COC(=O)c1nc(-c2ccc(C(F)(F)F)nc2)nc(N)c1Cl`
Outgoing: 0 to 29%

Incoming: Returns the measured pest or weed control at 70 g/ha for the input molecule. Input: `COC(=O)c1nc(-c2ccc(C(F)(F)F)nc2)cc(N)c1Cl`
Outgoing: 45 to 59%

Incoming: Returns the measured pest or weed control at 70 g/ha for the input molecule. Input: `Cc1c(F)c(Cl)cc(F)c1-c1cc(N)c(Cl)c(C(=O)O)n1`
Outgoing: 0 to 29%

* * *

System: Key Grass and Sedge Weeds as well as Grass Crops
Assay: Post-Emergent Test II (Table 6)
Assay type: in vivo
Conditions: post-emergence, 336 h, DIGSA: crabgrass (Digitaria sanguinalis), 70 g ai/ha, 14 days after application, read-out: Visual Growth Reduction (%) 14 Days After Application DIGSA
Endpoint: pest or weed control at 70 g/ha

Incoming: Given the entry `COC(=O)c1nc(-c2ccc(Cl)c(F)c2C)cc(N)c1Cl` , what pest or weed control at 70 g/ha was observed with Key Grass and Sedge Weeds as well as Grass Crops?
Outgoing: 0 to 29%

Incoming: Given the entry `COC(=O)c1nc(-c2ccc(C(F)(F)F)nc2F)c(F)c(N)c1Cl` , what pest or weed control at 70 g/ha was observed with Key Grass and Sedge Weeds as well as Grass Crops?
Outgoing: 0 to 29%

Incoming: Given the entry `Nc1c(F)c(-c2ccc(Br)nc2)nc(C(=O)O)c1Cl` , what pest or weed control at 70 g/ha was observed with Key Grass and Sedge Weeds as well as Grass Crops?
Outgoing: 85 to 94%

Incoming: Given the entry `Cc1c(-c2cc(N)c(Cl)c(C(=O)O)n2)ccc(Cl)c1F` , what pest or weed control at 70 g/ha was observed with Key Grass and Sedge Weeds as well as Grass Crops?
Outgoing: 0 to 29%

Incoming: Given the entry `COC(=O)c1nc(-c2ccc(Cl)c(F)c2C)nc(N)c1Cl` , what pest or weed control at 70 g/ha was observed with Key Grass and Sedge Weeds as well as Grass Crops?
Outgoing: 0 to 29%
